# inhibition of growth at 500 µg/mL values compiled below
Tested on: Rhizoctonia solani
Assay: Antifungal activity against Rhizoctonia solani assessed as growth inhibition at 500 ug/mL by potted plant test
Format: functional
Settings: read-out: GI
Write it as a number; the unit % goes unstated.

Example compounds with recorded inhibition of growth at 500 µg/mL:
Req: Provide value of inhibition of growth at 500 µg/mL for this record tested with Rhizoctonia solani: O=C(N/N=C/c1ccc(-c2ccc(F)cc2F)o1)c1ccccc1S[C@@H]1O[C@H](CO)[C@@H](O)[C@H](O)[C@H]1O
Resp: 45.5

Req: Query for Rhizoctonia solani: what inhibition of growth at 500 µg/mL does the record show for O=C(N/N=C/c1ccc(-c2ccccc2Cl)o1)c1ccccc1S[C@@H]1O[C@H](CO)[C@@H](O)[C@H](O)[C@H]1O ?
Resp: 34.4

Req: Which measured inhibition of growth at 500 µg/mL belongs to O=C(N/N=C/c1ccc(-c2ccc(F)cc2F)o1)c1ccccc1O , tested on Rhizoctonia solani?
Resp: 16.1

Req: For the record O=C(N/N=C/c1ccc(-c2ccc(F)cc2F)o1)c1ccccc1O[C@@H]1O[C@H](CO)[C@@H](O)[C@H](O)[C@H]1O , what value of inhibition of growth at 500 µg/mL is listed for Rhizoctonia solani?
Resp: 45.3

Req: Rhizoctonia solani / inhibition of growth at 500 µg/mL / O=C(N/N=C/c1ccc(-c2ccccc2Cl)o1)c1ccccc1S[C@@H]1O[C@H](CO)[C@@H](O[C@@H]2O[C@H](CO)[C@H](O)[C@H](O)[C@H]2O)[C@H](O)[C@H]1O : value?
Resp: 43.5

Now turn to the next compound.
Req: # get_value(readout= inhibition of growth at 500 µg/mL, system= Rhizoctonia solani) for OCC1=C[C@H](N[C@H]2C[C@H](CO)[C@@H](O[C@@H]3O[C@H](CO)[C@@H](O)[C@H](O)[C@H]3O)[C@H](O)[C@H]2O)[C@H](O)[C@@H](O)[C@@H]1O [VALIDAMYCIN]
Resp: 81

###

Tested on: Bel-7402
Assay: Antitumor activity against human Bel7402 cells assessed as growth inhibition at 10 uM by SRB method
Format: functional
Conditions: read-out: GI
Measured metric: inhibition of growth at 10 µM (%)
Response body: numeric value in %, unit text excluded.

The examples below pair each entry with its known result.
Req: Field request: inhibition of growth at 10 µM | item: O=C(N/N=C/c1ccc(-c2ccc(F)cc2F)o1)c1ccccc1O
Resp: 63.4

Req: Which inhibition of growth at 10 µM is reported for this molecule? O=C(N/N=C/c1ccc(-c2ccccc2Cl)o1)c1ccccc1S[C@@H]1O[C@H](CO)[C@@H](O[C@@H]2O[C@H](CO)[C@H](O)[C@H](O)[C@H]2O)[C@H](O)[C@H]1O
Resp: 8.3

Req: What value of measured inhibition of growth at 10 µM is listed for O=C(N/N=C/c1ccc(-c2ccccc2Cl)o1)c1ccccc1O[C@@H]1O[C@H](CO)[C@@H](O)[C@H](O)[C@H]1O ?
Resp: -10.3

Now look at this entry.
Req: Suppose we examine the molecule O=C(N/N=C/c1ccc(-c2ccc(F)cc2F)o1)c1ccccc1O[C@@H]1O[C@H](CO)[C@@H](O)[C@H](O)[C@H]1O ; what inhibition of growth at 10 µM value has been reported?
Resp: -5.7
